Where these numbers come from: ChEMBL document CHEMBL5214890

molecular target: Glucagon-like peptide 1 receptor (Homo sapiens); test: Agonist activity at human GLP-1R expressed in HEK293 cells incubated for 30 mins and assessed as increase in cAMP accumulation measured by HTRF assay; format: functional, cell-based
Sequence (P43220 whole entry): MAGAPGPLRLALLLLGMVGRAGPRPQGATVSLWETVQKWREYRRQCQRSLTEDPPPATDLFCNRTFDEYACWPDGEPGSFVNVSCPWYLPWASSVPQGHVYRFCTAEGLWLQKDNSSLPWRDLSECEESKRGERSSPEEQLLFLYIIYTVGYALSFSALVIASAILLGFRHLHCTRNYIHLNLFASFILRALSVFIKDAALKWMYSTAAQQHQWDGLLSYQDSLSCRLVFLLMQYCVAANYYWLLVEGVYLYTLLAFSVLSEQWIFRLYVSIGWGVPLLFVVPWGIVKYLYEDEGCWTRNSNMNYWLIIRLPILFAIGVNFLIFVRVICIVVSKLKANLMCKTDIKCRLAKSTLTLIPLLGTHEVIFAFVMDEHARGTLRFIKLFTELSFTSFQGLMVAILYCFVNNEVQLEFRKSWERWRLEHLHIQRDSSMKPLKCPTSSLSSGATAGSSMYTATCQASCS
Binary label based on EC50 with cut-off 0.2 nM: below gives yes, not below gives no.

# example entries with known answers
Req: Bench note: check whether H-HSQGTYTNDVTEYLDSRRAQDFIEWLKNGGPSSGAPPPS-NH2 shows EC50 below 0.2 nM
Resp: no

Req: Then H-HSQGTYTNDVSKYLDSRRAQDFIEWLKNGGPSSGAPPPS-NH2 ?
Resp: yes

Req: Then H-HSQGTYTNDVSKYLDSRRAQQFIEWLMNTKRNRNNIA-NH2 ?
Resp: no

Req: Then H-HSQGTYTNDVSKYLDSRRAQDFIEWLIKGKRNRNNIA-NH2 ?
Resp: yes

Req: Then H-HSQGTYTNDVTQYLDSRRAQQFIEWLMNTKRNRNNIA-NH2 ?
Resp: no

Kindly review the next substance as well.
Req: Bench note: check whether H-HSQGTYTNDVTEYLDSRRAQEFIEWLIKGK-NH2 shows EC50 below 0.2 nM
Resp: yes

====

biological target: Glucagon-like peptide 1 receptor (Homo sapiens); test: Agonist activity at human GLP-1R expressed in HEK293 cells incubated for 30 mins and assessed as increase in cAMP accumulation measured by HTRF assay relative to control; assay type: functional, cell-based; design: concentration or dose not given beside the values
Consider the following substances; for each one, report its Activity.

Here's what some known entries look like.
Req: If you can, please state the reported Activity value of H-HSQGTYTNDVTEYLDSRRAQDFIEWLIKGK-NH2 .
Resp: 34.2%

Req: Then H-HSQGTYTNDVSKYLDSRRAQDFIEWLIKG-NH2 ?
Resp: 7.3%

Next substance, please.
Req: If you can, please state the reported Activity value of H-HSQGTYTNDVTEYLDSRRAQDFIEWLIKGKPSSGAPPPS-NH2 .
Resp: 9.1%
